Entries and their measured combination Emax follow.
# Tested on: L-363 (Plasma Cell Myeloma)
# experiment_description: combination Emax (second highest fraction inhibited in the dose matrix, 72 h); higher = more inhibition; extreme values may be limits of the assay

>>> experimental_result("N#Cc1cnc(Nc2cc(NC[C@H]3CNCCO3)c(C(F)(F)F)cn2)cn1 [SRA737] + Nc1ccn([C@@H]2O[C@H](CO)[C@@H](O)C2(F)F)c(=O)n1 [Gemcitabine] (first compound max 10 µM, 7x7, partner max 0.3 µM)")
0.986

Turning now to a further molecule:
Incoming: Dear colleague, I am looking for the recorded combination Emax of the following molecule: Cc1c2c(nn1C)CSCc1cc(n(C)n1)CSc1cc(c3ccccc3c1)OCCCc1c(C(=O)O)n(C)c3c-2c(Cl)ccc13 [AZD5991] + CCN(CCO)CCCOc1ccc2c(Nc3cc(CC(=O)Nc4cccc(F)c4)[nH]n3)ncnc2c1 [AZD2811] (first compound max 1 µM, 7x7, partner max 1 µM)
Outgoing: 1

====

# Tested on: JURL-MK1 (Chronic Myelogenous Leukemia)
# experiment_description: Bliss excess, mean over the matrix (fraction); higher = more synergy
Entries and their measured Bliss excess follow.
# output: bare number, no unit

>>> experimental_result("CN(C)CCCOc1ccc(-c2ccc3ncc4c(c3c2)n(C2CCOCC2)c(=O)n4C)cn1 [AZD0156] + O=C(c1cc(Cc2n[nH]c(=O)c3ccccc23)ccc1F)N1CCN(C(=O)C2CC2)CC1 [Olaparib] (first compound max 3 µM, partner max 3 µM)")
0.157

Turning now to a further compound:
Incoming: Dear colleague, I am looking for the recorded Bliss excess of the following compound: COc1cc2c(cc1OCCCCCOc1cc3c(cc1OC)C(=O)N1C=C(C)C[C@H]1C=N3)N=C[C@@H]1CC(C)=CN1C2=O [SG3199] + O=C(c1cc(Cc2n[nH]c(=O)c3ccccc23)ccc1F)N1CCN(C(=O)C2CC2)CC1 [Olaparib] (first compound max 0.001 µM, 7x7, partner max 10 µM)
Outgoing: -0.0007

====

# Tested on: COR-L105 (Lung Adenocarcinoma)
# experiment_description: Bliss excess, mean over the matrix (fraction); higher = more synergy
If the reported Bliss excess equals or exceeds 0.003, assign Satisfied. If not, assign Not satisfied.

Some entries whose results are on file:
>>> answer_label("CS(=O)(=O)CCNCc1ccc(-c2ccc3ncnc(Nc4ccc(OCc5cccc(F)c5)c(Cl)c4)c3c2)o1 [Lapatinib] + C[C@@H](Oc1cc(-c2cnn(C3CCNCC3)c2)cnc1N)c1c(Cl)ccc(F)c1Cl [Crizotinib] (first compound max 10 µM, 7x7, partner max 10 µM)")
"Not satisfied"
>>> answer_label("CN(CCO)CC[C@H](CSc1ccccc1)Nc1ccc(S(=O)(=O)NC(=O)c2ccc(N3CCC([C@@H](O)c4ccccc4-c4ccc(Cl)cc4)CC3)cc2)cc1S(=O)(=O)C(F)(F)F [AZD4320] + CC(=O)O[C@H]1C(=O)[C@@]2(C)[C@H]([C@H](OC(=O)c3ccccc3)[C@]3(O)C[C@H](OC(=O)[C@H](O)[C@@H](NC(=O)c4ccccc4)c4ccccc4)C(C)=C1C3(C)C)[C@]1(OC(C)=O)CO[C@@H]1C[C@@H]2O [Paclitaxel] (first compound max 1 µM, 7x7, partner max 3 µM)")
"Satisfied"
>>> answer_label("Cc1nc(-c2cn3c(n2)-c2ccc(-c4cnn(C(C)(C)C(N)=O)c4)cc2OCC3)n(C(C)C)n1 [Taselisib] + O=C(Nc1ccc2[nH]nc(-c3ccncc3)c2c1)[C@@H]1CCN(CC(=O)N2CCN(c3ccc(-c4ncccn4)cc3)CC2)C1 [SCH772984] (first compound max 10 µM, 7x7, partner max 5 µM)")
"Satisfied"
>>> answer_label("CN(C)CCCOc1ccc(-c2ccc3ncc4c(c3c2)n(C2CCOCC2)c(=O)n4C)cn1 [AZD0156] + C[C@@H]1COCCN1C2=NC(=NC(=C2)C3(CC3)[S@](=N)(=O)C)C4=C5C=CNC5=NC=C4 [AZD6738] (first compound max 1 µM, 7x7, partner max 10 µM)")
"Not satisfied"

Incoming: Quick check, Bliss excess >= 0.003? C=CCn1c(=O)c2cnc(Nc3ccc(N4CCN(C)CC4)cc3)nc2n1-c1cccc(C(C)(C)O)n1 [AZD1775] + O=C(c1cc(Cc2n[nH]c(=O)c3ccccc23)ccc1F)N1CCN(C(=O)C2CC2)CC1 [Olaparib] (first compound max 1 µM, partner max 10 µM)
Outgoing: Not satisfied
